Recorded values, source ChEMBL document CHEMBL4689842.

test system: Fibroblast; assay: Multiplex assay against human fibroblast; type: toxicity, cell-based; conditions: 48 h, 10 µM, compound concentration 10 uM, replicate 2
Exercise: for every item that follows, state its recorded Population Fragmented Nuclei (%).
One number for each entry, in %.

For orientation, consider the following solved cases.
CCCn1c(=O)c2[nH]c(C34CC5CC(CC3C5)C4)nc2n(CCC)c1=O :: 37
CC(C)Oc1ccc(C(=O)N[C@H](CNC(=O)CN(C)C)Cc2ccc(-c3cn4cccc([C@H](C)O)c4n3)cc2)cc1Cl [GSK-923295A] :: 32
CCc1cc2c(cc1CC)CC(NC[C@H](O)c1ccc(O)c3[nH]c(=O)ccc13)C2 :: 52

Working through the 6 molecules below one at a time, give Population Fragmented Nuclei (%) for each.
1. Nc1ccc(C(=O)Nc2cccc(-c3nc(N4CCOCC4)c4oc5ncccc5c4n3)c2)cn1
2. Cc1nc(Cc2cccc(C(F)(F)F)c2)sc1-c1ccc(C(N)=O)nc1 [TP-024n]
3. Nc1nc2c(c(N3CCNCC3)n1)CCC1=C2[C@@H]2CCCC[C@@H]2O1
4. Cc1cc2c(cc1N1C(=O)c3cccc4c(CCCO)ccc(c34)C1=O)n(C)c(=O)n2C
5. CNc1oc(-c2cccc3ccccc23)nc1C#N
6. C1=N/C2=N/c3ccc(OCCN4CCCC4)c(c3)COC/C=C\COCc3cccc(c3)C(=C1)N2

Given back:
1. 82
2. 27
3. 27
4. 26
5. 46
6. 68

###

tested on: U2OS; experiment: Multiplex assay against U2OS; type: toxicity, cell-based; settings: human, 24 h, 10 µM, compound concentration 10 uM, replicate 2
For each entry below, report its Population Normal (%) value.
Don't forget the unit after the value.

Use the examples below as a reference point.
CCCn1c(=O)c2[nH]c(C34CC5CC(CC3C5)C4)nc2n(CCC)c1=O [ROLOFYLLINE] :: 94%
O=C(O)c1ccc2cc(-c3ccc(O)c(C45CC6CC(CC(C6)C4)C5)c3)ccc2c1 [O-DEMETHYLATED ADAPALENE] :: 92%
CCn1c(-c2nonc2N)nc2cnc(Oc3cccc(NC(=O)c4ccc(OCCN5CCOCC5)cc4)c3)cc21 [GSK-269962A] :: 94%
Cc1cc2c(cc1N1C(=O)c3cccc4c(CCCO)ccc(c34)C1=O)n(C)c(=O)n2C :: 88%
CNc1oc(-c2cccc3ccccc23)nc1C#N :: 55%
CCc1cc2c(cc1CC)CC(NC[C@H](O)c1ccc(O)c3[nH]c(=O)ccc13)C2 [INDACATEROL] :: 93%
O=C(O)c1ccc2c(c1)nc(Nc1cccc(Cl)c1)c1ccncc12 [SILMITASERTIB] :: 95%
Cl.Cl.NC1(c2ccc(-c3nc4ccn5c(=O)[nH]nc5c4cc3-c3ccccc3)cc2)CCC1 :: 78%
Cl.Cl.Nc1ncnc2c1c(-c1cccc(OCc3ccccc3)c1)cn2[C@H]1C[C@@H](CN2CCC2)C1 :: 90%
CCC(=O)O[C@]1(C(=O)SCF)[C@H](C)C[C@H]2[C@@H]3C[C@H](F)C4=CC(=O)C=C[C@]4(C)[C@@]3(F)[C@@H](O)C[C@@]21C [FLUTICASONE PROPIONATE] :: 91%

Answer for every listed entry: what is its Population Normal (%)? The entries follow.
1. N#Cc1cnc(Nc2cc(NC[C@H]3CNCCO3)c(C(F)(F)F)cn2)cn1 [SRA-737]
2. CCOc1cc(N2CCC(O)CC2)ccc1Nc1ncc2c(n1)N(C1CCCC1)CCC(=O)N2C
3. CC(C)(C)c1cnc(CSc2cnc(NC(=O)C3CCNCC3)s2)o1 [BMS-387032]
4. COc1ccc(NS(=O)(=O)c2sc3ccc(Cl)cc3c2C)cc1N1CCNCC1.Cl
5. CNC(=O)c1cc(Oc2ccc(NC(=O)Nc3cc(C(C)(C)C)nn3-c3ccc4ncccc4c3)c(F)c2)ccn1 [REBASTINIB]
6. Nc1ccc(C(=O)Nc2cccc(-c3nc(N4CCOCC4)c4oc5ncccc5c4n3)c2)cn1

Given back:
1. 91%
2. 92%
3. 82%
4. 97%
5. 82%
6. 80%

Asked: Supply recorded Population Normal (%) for CCOc1cc2ncc(C#N)c(Nc3ccc(OCc4cccc(F)c4)c(Cl)c3)c2cc1NC(=O)/C=C/CN(C)C [HKI-357] here.
Given back: 87%
